Data credit: patent CN114316047A

target: T1, 人的PD-1胞外区与人Fc融合蛋白(PD-1-ECD-hFc) (human, UniProt Q15116 25-170); assay: competition ELISA, PD-1-ECD-hFc coated, competitor PD-L1-Biotin
T1 construct: extracellular domain; Coated on ELISA plates; also called PD-1-hFc; not shown: human Fc
T1 sequence (Q15116 25-170): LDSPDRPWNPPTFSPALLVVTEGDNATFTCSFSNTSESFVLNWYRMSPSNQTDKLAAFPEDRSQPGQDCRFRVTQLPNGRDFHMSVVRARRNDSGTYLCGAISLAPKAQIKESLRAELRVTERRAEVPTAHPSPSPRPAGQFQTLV
Item-by-item account of IC50
Respond with the bare value in µg/mL.

Worked set:
{"binder": "5H10 (antibody, V domains shown, Mouse monoclonal antibody purified from hybridoma supernatant by Protein A; also called 鼠源PD-1单克隆抗体5H10; PD-1杂交瘤抗体5H10) VH: EVQLVESGGGLVKPGGSLKLSCAASGFTFSDYGMHWVRQAPEKGLEWVAYISGDSNTIYYADTVKGRFTISRDNAKNTLFLQMTSLRSEDTAMYYCTKRGPYYGYTHYFDYWGQGTTLTVSS VL: SIVMTQTPKFLLVSAGDRVTMTCKASQSVSNDVVWYQQKPGQSPKLLIYYASKRYTGVPDRFTGNGYGTDFTFTISTVQAEDLAVYFCQQDYSSPWTFGGGTKLEIK", "quantitativeResult": 0.339}
{"binder": "9H8 (antibody, V domains shown, Mouse monoclonal antibody purified from hybridoma supernatant by Protein A; also called 鼠源PD-1单克隆抗体9H8; PD-1杂交瘤抗体9H8) VH: EVKLVESGGGLVQPGGSLKLSCATSGFTFSDYYMYWVRQTPEKRLEWVAQISNGGGNTYYPDTVKGRFTISRDNAKNTLYLQMSRLKSEDTAIYYCSKSYYKYDGWYFDVWGAGTTVTVSS VL: DIVLTQSPASLAVSLGQRATISCRASESVEYSRTSLIQWYQLKPGQPPKLLIYAASYVESGVPDRFSGSGSGTEFSFNIHPVEEDDIAMYFCQQARKVPWTFGGGTNLEIK", "quantitativeResult": 0.319}
{"binder": "5F7 (antibody, V domains shown, Mouse monoclonal antibody purified from hybridoma supernatant by Protein A; also called 鼠源PD-1单克隆抗体5F7; PD-1杂交瘤抗体5F7) VH: EVMLVESGGDLVKPGGSLKLSCAASGFTFSSYMMSWVRQTPEKRLEWVAAISGGGGDTYYPDSVKGRFTISRDNAKNTLYLQMSSLRSEDTALYYCARRVVYAMDCWGQGTSVTVSS VL: DIQMTQSPASQSASLGESVTITCLASQSIGTWLVWYQQKPGKSPQLLISAATSLADGVPSRFSGSGSGTKFSFKISSLQAEDFVSYYCQQLYIIPWTFGGGTKLEIK", "quantitativeResult": 0.324}
{"binder": "10A10 (antibody, V domains shown, Mouse monoclonal antibody purified from hybridoma supernatant by Protein A; also called 鼠源PD-1单克隆抗体10A10; PD-1杂交瘤抗体10A10) VH: EVKLVESGGDLVKPGGSLKLSCAASGFTFNYYDISWVRQTPEKRLEWVATISGGGRYTYYLDNVQGRFTISRDNAKNILYLQMNSLRSDDTALYFCASPYEGAMDYWGQGTSVTVSS VL: DIVMTQSHKFMSTSIGDGVNITCKASQDVGTAVAWYQQKPGQSPKLLNKWASTRHTGVPDRFTGSGSGTDFTLTINNVQSEDLADYFCQQYSTFPYTFGGGTNLELK", "quantitativeResult": 0.361}
{"binder": "4B5 (antibody, V domains shown, Mouse monoclonal antibody purified from hybridoma supernatant by Protein A; also called 鼠源PD-1单克隆抗体4B5; PD-1杂交瘤抗体4B5) VH: EVILVESGGDLVKPGGSLKLSCAASGFTFSSYMMSWVRQTPEKRLEWVATISGGGANTYYLDSMKGRFTISRDNAKNILYLQMSSLRSEDTAFYYCARQSDRGFPYWGQGTLVTVSA VL: DIQMTQSPASQSASLGESVTITCLASQPIGTWLAWYQQKPGTSPQLLIFAATTLTDGVPSRFSGSGSGTKFSFKISSLQAEDFVSYYCQQFSSIPYTFGGGTRLEIK", "quantitativeResult": 0.343}

// next entry
Q: What does the data say about its IC50? Entry: 8D4 (antibody, V domains shown, Mouse monoclonal antibody purified from hybridoma supernatant by Protein A; also called 鼠源PD-1单克隆抗体8D4; PD-1杂交瘤抗体8D4) VH: EVQLQQSGTVLARPGASVKMSCKTSGYTFTNFWMHWVKQRPGQGLDWIGAIFPGNTDTTYNRKFKDKAKLTAVTSASTAYMELSSLTNEDSAVYYCTRNHYGLDYWGQGTSVTVSS VL: DIVLTQSPASLAVSLGQRATISCRASESVSIHGTHLMHWYQQKPGQPPKLLIYIASNLGSGVPARFSGSGSETDFTLNIHPVEEEDAATYFCQQSIEDPWTFGGGTKLEIK
Result: 0.37
